tested on: olfr62; assay: CRE-luciferase reporter gene assay, olfr62; type: cell-based, mouse; settings: Hana3A cells
ASSAY_READOUT: response of olfr62 to odorant (luciferase)

>>> df
             compound   measured
0    O=c1ccc2ccccc2o1  responded
1  O=Cc1ccc2c(c1)OCO2  responded
